Consider the following compounds; for each one, report its log10 Ki.
Please interpret these as log10 of Ki where Ki is in µM.

Bench note, Acetylcholinesterase (Torpedo californica, UniProt P04058): entry C/C=C(\C)C(=O)N[C@H]1CC[C@@]2(C)C(=CC[C@H]3[C@@H]4CC[C@H]([C@H](C)N(C)C)[C@@]4(C)CC[C@@H]32)C1=O , its log10 Ki = 0.73

Bench note, Acetylcholinesterase (Torpedo californica, UniProt P04058): entry CC(=O)N[C@H]1CC[C@@]2(C)[C@@H](CC[C@@H]3[C@@H]2CC[C@]2(C)[C@@H]([C@H](C)N(C)C)CC[C@@H]32)C1 , its log10 Ki = 1.96

Bench note, Acetylcholinesterase (Torpedo californica, UniProt P04058): entry C/C=C(\C)C(=O)N[C@@H]1[C@H](OC(C)=O)[C@@H]2CC[C@H]3C4=CC[C@H]([C@H](C)N(C)C)[C@@]4(C)CC[C@@H]3[C@@]2(C)C[C@@H]1O , its log10 Ki = 2.13

Bench note, Acetylcholinesterase (Torpedo californica, UniProt P04058): entry C/C(=C\C(=O)N[C@H]1CC[C@@]2(C)[C@@H](CC[C@@H]3[C@@H]2CC[C@]2(C)[C@@H]([C@H](C)N(C)C)CC[C@@H]32)C1)C(C)C , its log10 Ki = 0.96

Bench note, Acetylcholinesterase (Torpedo californica, UniProt P04058): entry C/C(=C\C(=O)N(C)[C@H]1CC[C@@]2(C)[C@@H](CC[C@@H]3[C@@H]2CC[C@]2(C)C([C@H](C)N(C)C)=CC[C@@H]32)C1)C(C)C , its log10 Ki = 1.03

Bench note, Acetylcholinesterase (Torpedo californica, UniProt P04058): entry C[C@@H]([C@H]1CC[C@H]2[C@@H]3CC[C@H]4C[C@@H](N(C)C(=O)/C=C/c5ccccc5)CC[C@]4(C)[C@H]3CC[C@]12C)N(C)C [SALIGCINNAMIDE] , its log10 Ki = 1.09

Bench note, Acetylcholinesterase (Torpedo californica, UniProt P04058): entry C/C(=C\C(=O)N(C)[C@H]1CC[C@@]2(C)[C@@H](CC[C@@H]3[C@@H]2CC[C@]2(C)[C@@H]([C@H](C)N(C)C)CC[C@@H]32)C1)C(C)C , its log10 Ki = 0.61

Bench note, Acetylcholinesterase (Torpedo californica, UniProt P04058): entry CC(=O)O[C@H]1[C@@H](NC(=O)C=C(C)C)CC[C@]2(C)[C@H]3CC[C@]4(C)[C@@H]([C@H](C)N(C)C)CC[C@H]4[C@@H]3CC[C@@H]12 , its log10 Ki = 1.25

Bench note, Acetylcholinesterase (Torpedo californica, UniProt P04058): entry CN[C@H]1CC[C@@]2(C)[C@@H](CC[C@@H]3[C@@H]2CC[C@]2(C)[C@@H]([C@H](C)N(C)C(C)=O)CC[C@@H]32)C1 , its log10 Ki = 2.33

Bench note, Acetylcholinesterase (Torpedo californica, UniProt P04058): entry CC(=O)O[C@H]1[C@@H](NC(=O)c2ccccc2)[C@@H](O)C[C@]2(C)[C@H]3CC[C@]4(C)[C@@H]([C@H](C)N(C)C)CC[C@H]4[C@@H]3CC[C@@H]12 , its log10 Ki = 2.10

Bench note, Acetylcholinesterase (Torpedo californica, UniProt P04058): entry C/C=C(\C)C(=O)N[C@H]1CC[C@@]2(C)C(=CC[C@H]3C4=CC[C@H]([C@H](C)N(C)C)[C@@]4(C)CC[C@@H]32)C1=O , its log10 Ki = 0.42

Bench note, Acetylcholinesterase (Torpedo californica, UniProt P04058): entry C[C@@H]([C@H]1CC[C@H]2[C@@H]3CC[C@H]4C(=O)C(NC(=O)c5ccccc5)=CC[C@]4(C)[C@H]3CC[C@]12C)N(C)C , its log10 Ki = 0.48
